tested on: AP-1 induced transcriptional activity; experiment: Cellular Transrepressional Assay (AP-1 luciferase reporter in A549 cells, PMA-activated); assay type: cell-based; conditions: A549 cells with 7x AP-1 luciferase reporter, 10 ng/ml PMA, 7 hours; read-out: AP-1 (EC50, nM) (Cellular Transrepression Assay)
Assay endpoint: EC50 (nM)
Supply the numeric figure in nM, leaving out any unit text.

Please review the following examples before continuing.
EC50 measured on CC(C(=O)Nc1nncs1)C(c1ccccc1)c1ccc2[nH]ncc2c1 (single isomer, unassigned) [151-diast A] = 9

Reported EC50 for O=C(Nc1nncs1)C(c1ccccc1)C(c1ccccc1)c1ccc2c(cnn2-c2ccc(F)cc2)c1 (single isomer, unassigned) [Example 145-isomerD] was 45

EC50 for CC(C)(C(=O)NC1CCCC1O)C(Cc1ccccc1)c1ccc2c(cnn2-c2ccc(F)cc2)c1 (single isomer, unassigned) [Example 124-isomerC] is 1250

// switching to the query compound
In plain terms, O=C(Nc1nncs1)C(c1ccccc1)C(c1ccccc1)c1ccc2c(cnn2-c2ccc(F)cc2)c1 (single isomer, unassigned) [Example 145-isomerA] has a documented EC50 of 5000

---

Listed below: Ki values for each entry.
target: human glucocorticoid receptor (Homo sapiens, UniProt P04150); construct: purified human recombinant full-length glucocorticoid receptor (2 nM); purchased Invitrogen Part #2893; test: Glucocorticoid Receptor Binding Assay (I), fluorescence polarization competitor kit (Fluormone GS Red); details: purified human recombinant full-length GR 2 nM, 1 nM Fluormone GS Red, FP; read-out: GR (Ki, nM) (GR Binding Assay (I))
Return type: number; implicit unit nM.

get_value(item= CC(C)(C(=O)NCCC(F)(F)F)C(c1ccccc1)c1ccc2c(cnn2-c2ccc(F)cc2)c1 (centres unmarked) , readout=Ki) returns 3.7

Form field Ki, entry CC(C)(C(=O)NC1CCCC1)C(c1ccccc1)c1ccc2c(cnn2-c2ccc(F)cc2)c1 (centres unmarked) : 6.9

Form field Ki, entry COCCCn1cc2cc(C(c3ccccc3)C(C)(C)C(=O)Nc3nncs3)ccc2n1 (centres unmarked) : 84

Kindly note the recorded Ki for CC(C)(C(=O)Nc1nc2ccccc2s1)C(c1ccccc1)c1ccc2c(cnn2-c2ccc(F)cc2)c1 (centres unmarked) , which is 60

Per the records, this molecule ( CC(C)(C(=O)Nc1nncs1)C(c1ccccc1)c1ccc2c(cnn2-c2ccc(Cl)cc2)c1 (centres unmarked) ) has Ki equal to 18

---

Recorded Ki, one value per entry.
Target: human full-length glucocorticoid receptor (Homo sapiens)
Construct: a cell lysate containing recombinantly expressed human full-length glucocorticoid receptor; purchased PanVera Co., Madison, Wis; P2816
Sequence (P04150 1-777): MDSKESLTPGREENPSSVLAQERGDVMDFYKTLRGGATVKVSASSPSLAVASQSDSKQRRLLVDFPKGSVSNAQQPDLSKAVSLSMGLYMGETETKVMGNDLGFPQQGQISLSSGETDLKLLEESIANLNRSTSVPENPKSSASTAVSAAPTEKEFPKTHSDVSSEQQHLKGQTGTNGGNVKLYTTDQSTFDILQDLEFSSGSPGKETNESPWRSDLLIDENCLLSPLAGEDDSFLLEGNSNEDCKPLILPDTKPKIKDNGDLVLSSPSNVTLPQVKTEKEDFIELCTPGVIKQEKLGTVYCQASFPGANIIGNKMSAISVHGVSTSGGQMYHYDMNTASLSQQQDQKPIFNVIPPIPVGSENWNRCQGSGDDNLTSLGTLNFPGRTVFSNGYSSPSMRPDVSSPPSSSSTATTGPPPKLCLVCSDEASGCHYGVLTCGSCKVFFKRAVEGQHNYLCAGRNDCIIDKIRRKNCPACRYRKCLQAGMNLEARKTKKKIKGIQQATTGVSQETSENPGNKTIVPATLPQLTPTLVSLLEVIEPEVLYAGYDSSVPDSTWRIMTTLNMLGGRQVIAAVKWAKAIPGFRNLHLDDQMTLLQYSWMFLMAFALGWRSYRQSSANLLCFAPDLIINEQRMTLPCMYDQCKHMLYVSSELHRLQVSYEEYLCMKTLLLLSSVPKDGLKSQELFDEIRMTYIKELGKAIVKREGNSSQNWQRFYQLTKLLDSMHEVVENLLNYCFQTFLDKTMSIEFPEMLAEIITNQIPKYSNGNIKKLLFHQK
Test: Glucocorticoid Receptor Binding Assay (II), fluorescence polarization competitor kit (Fluormone GS1)
Details: cell lysate with recombinant human full-length GR, 1 nM Fluormone GS1, FP
Could you give me the number in nM? Just the number is fine.

Guide cases for Ki, answers given:
What the record says about CC(C)(C(=O)Nc1nccs1)C1(c2ccc3c(cnn3-c3ccc(F)cc3)c2)CCCCC1 : Ki is 2.8

// sample CC(C)(C(=O)Nc1nncs1)[C@@H](c1ccccc1)c1ccc2c(cnn2-c2ccc(F)cc2C(=O)O)c1 , its Ki was 634

# Ki (compound: CC(C)(C(=O)NC1CCCC1O)C(Cc1ccccc1)c1ccc2c(cnn2-c2ccc(F)cc2)c1 (single isomer, unassigned) [Example 124-isomerA] ) is 7.5

Lookup result for CC(C)C(C(=O)Nc1nncs1)C(c1ccccc1)c1ccc2c(cnn2-c2ccc(F)cc2)c1 (stereo not shown) ; measured Ki: 2

Sample Cc1cccc(C(c2ccc3c(cnn3-c3ccc(F)cc3)c2)C(C)(C)C(=O)Nc2nncs2)c1 (stereo not shown) ; Ki observed: 0.92

Proceeding to the next compound to report its Ki.
compound O=C(Nc1nncs1)C(c1ccccc1)C(c1ccccc1)c1ccc2c(cnn2-c2ccc(F)cc2)c1 (single isomer, unassigned) [Example 145-isomerC] , Ki observed: 555

---

system: AP-1 induced transcriptional activity; test: Cellular Transrepressional Assay (AP-1 luciferase reporter in A549 cells, PMA-activated); type: cell-based; details: A549 cells with 7x AP-1 luciferase reporter, 10 ng/ml PMA, 7 hours; read-out: AP-1 (EC50, nM) (Cellular Transrepression Assay)
Let's look at some molecules and their measured EC50.

Field: example entries. Status: answers known.
EC50 for CC(C)(C(=O)NC1CCCC1)C(Cc1ccccc1)c1ccc2c(cnn2-c2ccc(F)cc2)c1 (single isomer, unassigned) is > 10000 nM

// field: EC50; key: O=C(CC(c1ccccc1)c1ccc2c(cnn2-c2ccc(F)cc2)c1)Nc1nncs1 (single isomer, unassigned) [136-enant A] ; value = > 10000 nM

// sample O=C(Nc1nccs1)C1CC1(c1ccccc1)c1ccc2c(cnn2-c2ccc(F)cc2)c1 (stereo not shown) [Example 99] , its EC50 was > 10000 nM

Next:
The recorded EC50 for entry CC(C)(C(=O)NC1CCCC1O)C(Cc1ccccc1)c1ccc2c(cnn2-c2ccc(F)cc2)c1 (single isomer, unassigned) [Example 124-isomerA] equals > 10000 nM

---

molecular target: human glucocorticoid receptor (Homo sapiens, UniProt P04150); construct: purified human recombinant full-length glucocorticoid receptor (2 nM); purchased Invitrogen Part #2893; assay: Glucocorticoid Receptor Binding Assay (I), fluorescence polarization competitor kit (Fluormone GS Red); conditions: purified human recombinant full-length GR 2 nM, 1 nM Fluormone GS Red, FP; read-out: GR (Ki, nM) (GR Binding Assay (I))
Assay endpoint: Ki (nM)
Express it in nM; write the number only.

Completed entries (count: 2):
Item: CCc1nnc(NC(=O)C(C)(C)C(c2ccccc2)c2ccc3c(cnn3-c3ccc(F)cc3)c2)s1 (stereo not drawn) [Example 20] | System: human glucocorticoid receptor (Homo sapiens, UniProt P04150) | Ki: 10

Query CC(C)(C(=O)Nc1nncs1)C(c1ccccc1)c1ccc2[nH]c(-c3ccncc3)cc2c1 (stereo not drawn) [Example 116] on human glucocorticoid receptor (Homo sapiens, UniProt P04150); Ki returned: 43

Continuing:
# CC(C)(C(=O)Nc1nncs1)C(c1ccccc1)c1ccc2c(cnn2-c2ccncc2)c1 (stereo not drawn) [Example 82] with human glucocorticoid receptor (Homo sapiens, UniProt P04150): Ki is 20

---

Below: a set of entries, each annotated with reported Ki.
molecular target: human glucocorticoid receptor (Homo sapiens); construct: purified human recombinant full-length glucocorticoid receptor (2 nM); purchased Invitrogen Part #2893; assay: Glucocorticoid Receptor Binding Assay (I), fluorescence polarization competitor kit (Fluormone GS Red); conditions: purified human recombinant full-length GR 2 nM, 1 nM Fluormone GS Red, FP; read-out: GR (Ki, nM) (GR Binding Assay (I))
Form entry: value (nM) — number only.

Tested on human glucocorticoid receptor (Homo sapiens), the item CC(C)(C(=O)Nc1nncs1)C(c1ccccc1)c1ccc2c(cnn2-c2ccc(Br)cc2)c1 (stereo not drawn) showed Ki equal to 29

Simply: CC(C)(C(=O)Nc1nccs1)C(c1ccccc1)c1ccc2c(cnn2CS(C)(=O)=O)c1 (stereo not drawn) , human glucocorticoid receptor (Homo sapiens), Ki = 29

// below: Ki requested for another compound
Field Ki (system: human glucocorticoid receptor (Homo sapiens)) for entry Cc1ccc(-c2cc3cc(C(c4ccccc4)C(C)(C)C(=O)Nc4nccs4)ccc3[nH]2)cc1 (stereo not drawn) = 146

---

Listed below: Ki values for each entry.
target: human full-length glucocorticoid receptor (Homo sapiens, UniProt P04150); construct: a cell lysate containing recombinantly expressed human full-length glucocorticoid receptor; purchased PanVera Co., Madison, Wis; P2816; experiment: Glucocorticoid Receptor Binding Assay (II), fluorescence polarization competitor kit (Fluormone GS1); settings: cell lysate with recombinant human full-length GR, 1 nM Fluormone GS1, FP
Please state the figure in nM; there is no need to write the unit.

Worked examples, 5 molecules total:
Entry O=C(Nc1nncs1)C(c1ccccc1)C(c1ccccc1)c1ccc2c(cnn2-c2ccc(F)cc2)c1 (single isomer, unassigned) [Example 145-isomerD] , tested on human full-length glucocorticoid receptor (Homo sapiens, UniProt P04150), has a reported Ki of 2.4

CC(C)(C(=O)Nc1nccs1)C(C)(C)c1ccc2c(cnn2-c2ccc(F)cc2)c1 tested on human full-length glucocorticoid receptor (Homo sapiens, UniProt P04150) gave Ki: 5.1

Summary: CC(C)(C(=O)Nc1nncs1)C(Cc1ccccc1)c1ccc2c(cnn2-c2ccc(F)cc2)c1 (stereo not shown) , human full-length glucocorticoid receptor (Homo sapiens, UniProt P04150), Ki = 1.1

The molecule C=CCC(c1ccc2c(cnn2-c2ccc(F)cc2)c1)C(C)(C)C(=O)Nc1nncs1 (stereo not shown) , when measured on human full-length glucocorticoid receptor (Homo sapiens, UniProt P04150), yielded Ki of 2.6

Reading of Ki for CC(C)(C(=O)Nc1nncs1)C(OCc1ccccc1)c1ccc2c(cnn2-c2ccc(F)cc2)c1 (stereo not shown) with human full-length glucocorticoid receptor (Homo sapiens, UniProt P04150): 1.6

More entries:
The reported Ki value, human full-length glucocorticoid receptor (Homo sapiens, UniProt P04150), for CC(C)(C(=O)NC1CCCC1O)C(Cc1ccccc1)c1ccc2c(cnn2-c2ccc(F)cc2)c1 (single isomer, unassigned) [Example 124-isomerB] reads 2.3

Summary line: CC(C)(C(=O)Nc1nncs1)[C@@H](c1ccccc1)c1ccc2c(cnn2-c2ccc(F)cc2NC(N)=O)c1 , human full-length glucocorticoid receptor (Homo sapiens, UniProt P04150), reported Ki = 32

human full-length glucocorticoid receptor (Homo sapiens, UniProt P04150) assay, molecule CC(C)(C(=O)NC1CCCC1)C(Cc1ccccc1)c1ccc2c(cnn2-c2ccc(F)cc2)c1 (single isomer, unassigned) [Example 130] , recorded Ki = 6.1

Observed Ki on human full-length glucocorticoid receptor (Homo sapiens, UniProt P04150), entry CC(C)C(c1ccc2c(cnn2-c2ccc(F)cc2)c1)C(C)(C)C(=O)Nc1nncs1 (stereo not shown) , equals 2.4

Entry Cc1cccc(C(c2ccc3c(cnn3-c3ccc(F)cc3)c2)C(C)(C)C(=O)Nc2nccs2)c1 (stereo not shown) , tested on human full-length glucocorticoid receptor (Homo sapiens, UniProt P04150), has a reported Ki of 2.3
